Test: pKa of TNX and cocrystal coformers (values from SciFinder)
Conditions: between CCF and TNX (pKa of TNX 4.50)
Consider the following compounds; for each one, report its ΔpKa Value.
The answer should be a number; do not append a unit.

// O=C(O)/C=C\C(=O)O : ΔpKa Value value = 2.11

Lab note: measured ΔpKa Value of Oc1cccc(O)c1O was 4.78

Entry O=C(O)c1c(O)cccc1O [2,6-Dihydroxybenzoic acid (DHB), 2,6-Dihydroxybenzoic acid] — recorded ΔpKa Value = 3.20

Note to self: ΔpKa Value recorded for Oc1cccc(O)c1 [Resorcinol (RSC), Resorcinol] was 4.95

For reference, reported ΔpKa Value for O=C(O)CCC(=O)O [Succinic acid (SNA), Succinic acid] stands at 0.26

Please fill in: ΔpKa Value reported for O=C(O)c1ccc(O)cc1 [4-Hydroxybenzoic acid (HBA), 4-Hydroxybenzoic acid] = 0.07

Recorded result, O=C(O)c1cc([N+](=O)[O-])cc([N+](=O)[O-])c1 , ΔpKa Value: 1.73

Given item Oc1ccccc1O , the value recorded as its ΔpKa Value is 5.00

Input O=C(O)CCC(=O)C(=O)O . Output ΔpKa Value: 2.12

Reported ΔpKa Value ( O=C(O)CO ) = 0.76

ΔpKa Value reading for Nc1ccc(C(=O)O)c(O)c1 : 0.92
